# experimental system: CDKL5 (human) (UniProt O76039)
property name: Kd (nM)
Only the number, expressed in nM, is required.

Give its Kd value. Item: CN(C)C/C=C/C(=O)Nc1cccc(C(=O)Nc2ccc(Nc3nccc(-c4cccnc4)n3)cc2)c1
34

====

# experimental system: UniProtKB Q96L34
# Sequence (Q96L34 whole entry, looked up): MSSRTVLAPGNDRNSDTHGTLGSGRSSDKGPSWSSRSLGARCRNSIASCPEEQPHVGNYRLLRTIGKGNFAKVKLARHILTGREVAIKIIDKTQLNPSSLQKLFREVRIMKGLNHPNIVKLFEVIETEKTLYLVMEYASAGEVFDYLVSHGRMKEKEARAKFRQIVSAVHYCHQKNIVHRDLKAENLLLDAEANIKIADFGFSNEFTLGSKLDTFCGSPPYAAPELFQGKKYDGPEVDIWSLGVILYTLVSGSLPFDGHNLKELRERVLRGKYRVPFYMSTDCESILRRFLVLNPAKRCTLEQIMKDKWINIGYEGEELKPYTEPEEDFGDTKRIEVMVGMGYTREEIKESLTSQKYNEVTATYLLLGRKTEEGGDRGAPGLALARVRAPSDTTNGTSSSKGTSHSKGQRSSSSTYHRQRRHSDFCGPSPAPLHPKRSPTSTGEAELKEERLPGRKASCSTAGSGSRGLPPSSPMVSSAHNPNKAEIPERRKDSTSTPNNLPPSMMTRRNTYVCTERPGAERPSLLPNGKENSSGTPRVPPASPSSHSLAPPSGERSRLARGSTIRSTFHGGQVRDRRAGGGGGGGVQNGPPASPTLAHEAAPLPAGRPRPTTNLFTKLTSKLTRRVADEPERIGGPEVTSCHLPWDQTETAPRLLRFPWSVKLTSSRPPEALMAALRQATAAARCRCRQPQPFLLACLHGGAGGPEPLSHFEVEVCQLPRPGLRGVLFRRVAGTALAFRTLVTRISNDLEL
# test: KINOMEscan competition binding
# particulars: compound 1.0 µM
Overview of recorded kinase still bound, per cent of control for various compounds
Only the number, expressed in %, is required.

Recorded kinase still bound, per cent of control, per entry:
compound string	experimental result
Cc1cc(NC(=O)c2cccc(NC(=O)/C=C/CN(C)C)c2)ccc1Nc1nccc(-c2cccnc2)n1	97
CN(C)C/C=C/C(=O)Nc1cccc(C(=O)Nc2ccc(Nc3nccc(-c4cccnc4)n3)cc2)c1	40
CN(C)C/C=C/C(=O)Nc1cccc(C(=O)Nc2ccc(Nc3nccc(-c4c(-c5ccccc5)nn5ccccc45)n3)cc2)c1	100

--- query ---
Give its kinase still bound, per cent of control value. Item: CN(C)C/C=C/C(=O)Nc1cccc(C(=O)Nc2ccc(Nc3nccc(/C(C#N)=C4\Nc5ccccc5S4)n3)cc2)c1
100

====

# experimental system: PAK2 (human) (UniProt Q13177)
# test: KINOMEscan competition binding
# particulars: compound 1.0 µM
property name: kinase still bound, per cent of control (%)
Only the number, expressed in %, is required.

compound string	experimental system	kinase still bound, per cent of control (%)
CN(C)C/C=C/C(=O)Nc1cccc(C(=O)Nc2ccc(Nc3nccc(/C(C#N)=C4\Nc5ccccc5S4)n3)cc2)c1	PAK2 (human) (UniProt Q13177)	100
CN(C)C/C=C/C(=O)Nc1cccc(C(=O)Nc2ccc(Nc3nccc(-c4cccnc4)n3)cc2)c1	PAK2 (human) (UniProt Q13177)	87
Cc1cc(NC(=O)c2cccc(NC(=O)/C=C/CN(C)C)c2)ccc1Nc1nccc(-c2cccnc2)n1	PAK2 (human) (UniProt Q13177)	100

--- query ---
Give its kinase still bound, per cent of control value. Item: CN(C)C/C=C/C(=O)Nc1cccc(C(=O)Nc2ccc(Nc3nccc(-c4c(-c5ccccc5)nn5ccccc45)n3)cc2)c1
88

====

# Tested on: PIK3CA (human), P42336 [I800L]
# Sequence (P42336 whole entry I800L, looked up): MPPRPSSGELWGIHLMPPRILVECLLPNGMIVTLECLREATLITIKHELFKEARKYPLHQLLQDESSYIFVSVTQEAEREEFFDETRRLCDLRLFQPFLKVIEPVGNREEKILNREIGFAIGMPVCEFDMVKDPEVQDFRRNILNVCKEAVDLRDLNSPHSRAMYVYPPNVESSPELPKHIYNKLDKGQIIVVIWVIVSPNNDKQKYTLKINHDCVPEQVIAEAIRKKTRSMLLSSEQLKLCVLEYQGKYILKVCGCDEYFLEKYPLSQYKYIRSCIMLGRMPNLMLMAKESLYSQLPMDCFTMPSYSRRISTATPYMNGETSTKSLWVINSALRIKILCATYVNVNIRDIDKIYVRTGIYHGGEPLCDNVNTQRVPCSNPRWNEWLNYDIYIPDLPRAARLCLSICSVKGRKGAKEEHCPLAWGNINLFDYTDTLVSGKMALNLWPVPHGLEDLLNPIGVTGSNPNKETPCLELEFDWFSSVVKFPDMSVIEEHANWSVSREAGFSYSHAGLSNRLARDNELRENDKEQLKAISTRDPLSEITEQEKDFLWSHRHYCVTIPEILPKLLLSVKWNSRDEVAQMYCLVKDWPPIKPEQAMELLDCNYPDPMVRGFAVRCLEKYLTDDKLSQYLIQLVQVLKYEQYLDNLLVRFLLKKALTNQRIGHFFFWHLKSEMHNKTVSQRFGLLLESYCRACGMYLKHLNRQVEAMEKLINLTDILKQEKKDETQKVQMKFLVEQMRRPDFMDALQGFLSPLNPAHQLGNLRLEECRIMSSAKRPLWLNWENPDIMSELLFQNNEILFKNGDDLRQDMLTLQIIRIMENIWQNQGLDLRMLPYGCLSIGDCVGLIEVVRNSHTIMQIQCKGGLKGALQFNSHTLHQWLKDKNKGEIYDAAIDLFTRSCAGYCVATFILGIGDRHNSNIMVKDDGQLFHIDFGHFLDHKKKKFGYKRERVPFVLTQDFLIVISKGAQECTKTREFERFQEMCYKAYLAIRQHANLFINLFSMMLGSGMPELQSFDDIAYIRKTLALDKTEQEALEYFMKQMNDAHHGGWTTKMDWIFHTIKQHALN
# test: KINOMEscan competition binding
# particulars: compound 1.0 µM
Overview of recorded kinase still bound, per cent of control for various compounds
Only the number, expressed in %, is required.

compound string	kinase still bound, per cent of control (%)
CN(C)C/C=C/C(=O)Nc1cccc(C(=O)Nc2ccc(Nc3nccc(-c4cccnc4)n3)cc2)c1	98

kinase still bound, per cent of control of Cc1cc(NC(=O)c2cccc(NC(=O)/C=C/CN(C)C)c2)ccc1Nc1nccc(-c2cccnc2)n1 on PIK3CA (human), P42336 [I800L]?
88

And the next one, CN(C)C/C=C/C(=O)Nc1cccc(C(=O)Nc2ccc(Nc3nccc(/C(C#N)=C4\Nc5ccccc5S4)n3)cc2)c1 ?
100

And the next one, CN(C)C/C=C/C(=O)Nc1cccc(C(=O)Nc2ccc(Nc3nccc(-c4c(-c5ccccc5)nn5ccccc45)n3)cc2)c1 ?
77

====

Overview of recorded kinase still bound, per cent of control for various molecules
# experimental system: RPS6KB1 (human)
# test: KINOMEscan competition binding
# particulars: compound 1.0 µM
Only the number, expressed in %, is required.

Recorded kinase still bound, per cent of control, per entry:
compound string	result units	experimental result
Cc1cc(NC(=O)c2cccc(NC(=O)/C=C/CN(C)C)c2)ccc1Nc1nccc(-c2cccnc2)n1	%	100
CN(C)C/C=C/C(=O)Nc1cccc(C(=O)Nc2ccc(Nc3nccc(-c4cccnc4)n3)cc2)c1	%	68
CN(C)C/C=C/C(=O)Nc1cccc(C(=O)Nc2ccc(Nc3nccc(-c4c(-c5ccccc5)nn5ccccc45)n3)cc2)c1	%	83

--- query ---
kinase still bound, per cent of control of CN(C)C/C=C/C(=O)Nc1cccc(C(=O)Nc2ccc(Nc3nccc(/C(C#N)=C4\Nc5ccccc5S4)n3)cc2)c1 on RPS6KB1 (human)?
100

====

# experimental system: RET (human) (UniProt P07949)
# Sequence (P07949 whole entry, looked up): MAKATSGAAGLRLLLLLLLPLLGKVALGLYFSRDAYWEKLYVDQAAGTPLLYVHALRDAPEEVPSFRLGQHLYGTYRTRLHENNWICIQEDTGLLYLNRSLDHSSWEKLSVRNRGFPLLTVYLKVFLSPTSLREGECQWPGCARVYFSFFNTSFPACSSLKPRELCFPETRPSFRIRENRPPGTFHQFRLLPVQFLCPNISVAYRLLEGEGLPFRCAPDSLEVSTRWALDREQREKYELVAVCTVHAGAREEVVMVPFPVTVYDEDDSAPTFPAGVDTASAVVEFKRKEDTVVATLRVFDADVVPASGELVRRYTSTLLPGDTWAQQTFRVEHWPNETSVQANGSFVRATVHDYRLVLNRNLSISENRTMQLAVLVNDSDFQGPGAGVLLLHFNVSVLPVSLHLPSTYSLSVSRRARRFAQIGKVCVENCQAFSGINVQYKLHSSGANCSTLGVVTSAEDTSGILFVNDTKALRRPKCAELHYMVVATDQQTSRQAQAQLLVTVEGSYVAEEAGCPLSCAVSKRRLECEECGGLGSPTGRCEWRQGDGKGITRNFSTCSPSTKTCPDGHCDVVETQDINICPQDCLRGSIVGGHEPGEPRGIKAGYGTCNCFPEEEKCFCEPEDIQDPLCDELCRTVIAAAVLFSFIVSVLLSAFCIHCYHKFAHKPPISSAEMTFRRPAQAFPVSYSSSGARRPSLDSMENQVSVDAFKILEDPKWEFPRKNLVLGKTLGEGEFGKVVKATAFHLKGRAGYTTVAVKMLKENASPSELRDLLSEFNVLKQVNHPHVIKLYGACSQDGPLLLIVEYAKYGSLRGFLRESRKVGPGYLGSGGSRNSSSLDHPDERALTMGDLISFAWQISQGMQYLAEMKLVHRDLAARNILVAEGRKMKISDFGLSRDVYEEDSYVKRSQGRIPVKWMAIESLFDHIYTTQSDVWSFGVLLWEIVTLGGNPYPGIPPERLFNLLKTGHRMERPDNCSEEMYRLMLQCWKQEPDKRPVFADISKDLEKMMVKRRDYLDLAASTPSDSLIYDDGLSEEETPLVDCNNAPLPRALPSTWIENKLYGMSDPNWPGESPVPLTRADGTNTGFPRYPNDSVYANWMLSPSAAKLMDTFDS
# test: KINOMEscan competition binding
# particulars: compound 1.0 µM
property name: kinase still bound, per cent of control (%)
Only the number, expressed in %, is required.

Recorded kinase still bound, per cent of control, per entry:
compound string	property name	result units	experimental result
CN(C)C/C=C/C(=O)Nc1cccc(C(=O)Nc2ccc(Nc3nccc(/C(C#N)=C4\Nc5ccccc5S4)n3)cc2)c1	kinase still bound, per cent of control	%	91
CN(C)C/C=C/C(=O)Nc1cccc(C(=O)Nc2ccc(Nc3nccc(-c4cccnc4)n3)cc2)c1	kinase still bound, per cent of control	%	100
CN(C)C/C=C/C(=O)Nc1cccc(C(=O)Nc2ccc(Nc3nccc(-c4c(-c5ccccc5)nn5ccccc45)n3)cc2)c1	kinase still bound, per cent of control	%	8.3

Give its kinase still bound, per cent of control value. Item: Cc1cc(NC(=O)c2cccc(NC(=O)/C=C/CN(C)C)c2)ccc1Nc1nccc(-c2cccnc2)n1
100

====

# Test system: EGFR (human), P00533 [L858R]
# test: KINOMEscan competition binding
# particulars: compound 1.0 µM
property name: kinase still bound, per cent of control (%)
Only the number, expressed in %, is required.

Recorded kinase still bound, per cent of control, per entry:
compound string	experimental system	kinase still bound, per cent of control / %
Cc1cc(NC(=O)c2cccc(NC(=O)/C=C/CN(C)C)c2)ccc1Nc1nccc(-c2cccnc2)n1	EGFR (human), P00533 [L858R]	100
CN(C)C/C=C/C(=O)Nc1cccc(C(=O)Nc2ccc(Nc3nccc(-c4cccnc4)n3)cc2)c1	EGFR (human), P00533 [L858R]	91
CN(C)C/C=C/C(=O)Nc1cccc(C(=O)Nc2ccc(Nc3nccc(-c4c(-c5ccccc5)nn5ccccc45)n3)cc2)c1	EGFR (human), P00533 [L858R]	0.8

kinase still bound, per cent of control of CN(C)C/C=C/C(=O)Nc1cccc(C(=O)Nc2ccc(Nc3nccc(/C(C#N)=C4\Nc5ccccc5S4)n3)cc2)c1 on EGFR (human), P00533 [L858R]?
96

====

Overview of recorded kinase still bound, per cent of control for various compounds
# experimental system: SIK1 (human) (UniProt P57059)
# Sequence (P57059 whole entry, looked up): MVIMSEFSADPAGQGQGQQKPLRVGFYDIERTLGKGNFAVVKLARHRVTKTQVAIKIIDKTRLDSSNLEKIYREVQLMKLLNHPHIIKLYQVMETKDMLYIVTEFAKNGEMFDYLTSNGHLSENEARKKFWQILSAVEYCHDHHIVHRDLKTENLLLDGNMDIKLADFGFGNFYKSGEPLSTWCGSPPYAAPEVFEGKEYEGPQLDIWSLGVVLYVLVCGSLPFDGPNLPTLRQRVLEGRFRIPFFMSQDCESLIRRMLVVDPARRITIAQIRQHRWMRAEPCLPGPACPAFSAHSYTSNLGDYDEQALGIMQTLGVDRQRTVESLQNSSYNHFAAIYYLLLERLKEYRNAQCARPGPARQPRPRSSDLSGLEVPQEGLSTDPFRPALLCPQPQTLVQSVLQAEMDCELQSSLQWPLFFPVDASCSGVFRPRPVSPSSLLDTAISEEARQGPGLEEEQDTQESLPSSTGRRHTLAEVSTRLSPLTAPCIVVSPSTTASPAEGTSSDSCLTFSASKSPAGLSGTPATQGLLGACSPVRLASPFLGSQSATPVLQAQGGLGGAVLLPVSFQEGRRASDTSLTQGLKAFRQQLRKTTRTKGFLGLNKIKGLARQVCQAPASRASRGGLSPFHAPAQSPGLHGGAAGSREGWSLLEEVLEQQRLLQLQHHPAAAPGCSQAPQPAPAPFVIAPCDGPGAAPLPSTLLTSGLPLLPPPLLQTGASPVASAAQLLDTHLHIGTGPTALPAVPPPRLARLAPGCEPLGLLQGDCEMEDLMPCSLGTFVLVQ
# test: KINOMEscan competition binding
# particulars: compound 1.0 µM
Only the number, expressed in %, is required.

Recorded kinase still bound, per cent of control, per entry:
compound string	experimental system	result units	kinase still bound, per cent of control
CN(C)C/C=C/C(=O)Nc1cccc(C(=O)Nc2ccc(Nc3nccc(-c4cccnc4)n3)cc2)c1	SIK1 (human) (UniProt P57059)	%	87
CN(C)C/C=C/C(=O)Nc1cccc(C(=O)Nc2ccc(Nc3nccc(-c4c(-c5ccccc5)nn5ccccc45)n3)cc2)c1	SIK1 (human) (UniProt P57059)	%	29
Cc1cc(NC(=O)c2cccc(NC(=O)/C=C/CN(C)C)c2)ccc1Nc1nccc(-c2cccnc2)n1	SIK1 (human) (UniProt P57059)	%	100

--- query ---
kinase still bound, per cent of control of CN(C)C/C=C/C(=O)Nc1cccc(C(=O)Nc2ccc(Nc3nccc(/C(C#N)=C4\Nc5ccccc5S4)n3)cc2)c1 on SIK1 (human) (UniProt P57059)?
100

====

Overview of recorded kinase still bound, per cent of control for various compounds
# experimental system: FES (human)
# test: KINOMEscan competition binding
# particulars: compound 1.0 µM
Only the number, expressed in %, is required.

compound string	result units	kinase still bound, per cent of control
CN(C)C/C=C/C(=O)Nc1cccc(C(=O)Nc2ccc(Nc3nccc(-c4c(-c5ccccc5)nn5ccccc45)n3)cc2)c1	%	100
CN(C)C/C=C/C(=O)Nc1cccc(C(=O)Nc2ccc(Nc3nccc(-c4cccnc4)n3)cc2)c1	%	100
CN(C)C/C=C/C(=O)Nc1cccc(C(=O)Nc2ccc(Nc3nccc(/C(C#N)=C4\Nc5ccccc5S4)n3)cc2)c1	%	100

--- query ---
Give its kinase still bound, per cent of control value. Item: Cc1cc(NC(=O)c2cccc(NC(=O)/C=C/CN(C)C)c2)ccc1Nc1nccc(-c2cccnc2)n1
89

====

# experimental system: GAK (human) (UniProt O14976)
# Sequence (O14976 whole entry, looked up): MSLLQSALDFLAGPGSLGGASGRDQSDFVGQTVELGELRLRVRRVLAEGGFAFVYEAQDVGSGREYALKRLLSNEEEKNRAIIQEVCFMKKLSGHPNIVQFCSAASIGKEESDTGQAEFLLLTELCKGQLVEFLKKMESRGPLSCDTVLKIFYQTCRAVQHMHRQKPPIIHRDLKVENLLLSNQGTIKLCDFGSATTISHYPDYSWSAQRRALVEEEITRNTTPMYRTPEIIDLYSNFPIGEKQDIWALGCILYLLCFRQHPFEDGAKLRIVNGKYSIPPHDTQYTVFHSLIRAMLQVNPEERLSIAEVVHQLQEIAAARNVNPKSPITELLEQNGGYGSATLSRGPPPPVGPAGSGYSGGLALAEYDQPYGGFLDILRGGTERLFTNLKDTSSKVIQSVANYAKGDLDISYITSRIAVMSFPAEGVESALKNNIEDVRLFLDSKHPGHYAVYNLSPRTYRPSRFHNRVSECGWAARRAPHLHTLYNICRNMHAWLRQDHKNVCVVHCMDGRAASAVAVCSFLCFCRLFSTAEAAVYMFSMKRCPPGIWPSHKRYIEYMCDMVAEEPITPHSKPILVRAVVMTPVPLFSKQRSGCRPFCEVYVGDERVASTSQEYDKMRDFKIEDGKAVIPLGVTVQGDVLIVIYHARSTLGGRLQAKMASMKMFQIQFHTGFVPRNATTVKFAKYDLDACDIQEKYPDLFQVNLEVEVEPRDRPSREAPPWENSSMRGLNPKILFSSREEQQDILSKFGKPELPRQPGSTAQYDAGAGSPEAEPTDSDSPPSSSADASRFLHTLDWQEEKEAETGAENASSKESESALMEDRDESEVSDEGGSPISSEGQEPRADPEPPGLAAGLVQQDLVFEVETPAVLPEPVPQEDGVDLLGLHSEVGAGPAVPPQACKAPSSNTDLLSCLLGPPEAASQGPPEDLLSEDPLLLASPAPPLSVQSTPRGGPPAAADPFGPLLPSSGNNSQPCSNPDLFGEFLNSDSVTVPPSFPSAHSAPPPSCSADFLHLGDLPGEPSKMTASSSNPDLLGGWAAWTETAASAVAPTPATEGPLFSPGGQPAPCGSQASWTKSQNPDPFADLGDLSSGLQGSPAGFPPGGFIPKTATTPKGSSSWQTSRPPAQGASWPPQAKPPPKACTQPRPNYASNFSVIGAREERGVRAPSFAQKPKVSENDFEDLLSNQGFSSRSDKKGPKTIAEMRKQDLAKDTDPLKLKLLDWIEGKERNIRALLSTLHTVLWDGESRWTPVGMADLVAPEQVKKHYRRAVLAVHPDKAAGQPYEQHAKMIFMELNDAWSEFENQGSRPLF
# test: KINOMEscan competition binding
# particulars: compound 1.0 µM
Overview of recorded kinase still bound, per cent of control for various compounds
Only the number, expressed in %, is required.

Recorded kinase still bound, per cent of control, per entry:
compound string	kinase still bound, per cent of control [%]
CN(C)C/C=C/C(=O)Nc1cccc(C(=O)Nc2ccc(Nc3nccc(-c4c(-c5ccccc5)nn5ccccc45)n3)cc2)c1	2.4
Cc1cc(NC(=O)c2cccc(NC(=O)/C=C/CN(C)C)c2)ccc1Nc1nccc(-c2cccnc2)n1	92
CN(C)C/C=C/C(=O)Nc1cccc(C(=O)Nc2ccc(Nc3nccc(/C(C#N)=C4\Nc5ccccc5S4)n3)cc2)c1	79

Give its kinase still bound, per cent of control value. Item: CN(C)C/C=C/C(=O)Nc1cccc(C(=O)Nc2ccc(Nc3nccc(-c4cccnc4)n3)cc2)c1
33
